# target.or.system: T1, GFP-9S library array, motif 4 ND N98S;D124T (synthetic construct, N98S;D124T)
# T1 chain: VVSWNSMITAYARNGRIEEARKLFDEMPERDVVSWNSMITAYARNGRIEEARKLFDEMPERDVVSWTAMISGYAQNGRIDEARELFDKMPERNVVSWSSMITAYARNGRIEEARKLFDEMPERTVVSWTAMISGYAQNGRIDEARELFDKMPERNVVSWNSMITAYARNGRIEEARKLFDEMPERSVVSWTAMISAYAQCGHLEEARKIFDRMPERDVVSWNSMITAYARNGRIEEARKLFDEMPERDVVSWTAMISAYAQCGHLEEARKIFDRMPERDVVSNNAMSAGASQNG
# assay.remarks: high-throughput RNA pulldown from lysate on Ni-NTA beads; HRP: 50 mM Tris pH 8, 150 mM NaCl, 1 mM beta-mercaptoethanol, 50 ug/ml BSA, 3 ug/ml yeast RNA, 0.5% heparin; ITC and FP: Tris pH 8, 200 mM KCl, 5% glycerol; MST: 50 mM Tris pH 8, 200 mM NaCl, 1 mM DTT, BSA, heparin, 0.05% Tween 20
# condition.summary: tags: N-terminal His-eGFP; label: 5' IRDye 800CW
metric: pKd
Remember the convention: pKd equals -log10 of concentration in molar.

# binder, pKd
rows = [
    ("AUUAUACGUGA (ssRNA) [IR-rpoA-U]", 6.96),
]

INPUT: Using the record for AUUAAACGUGA (ssRNA) [IR-rpoA-A] , state its measured pKd.
OUTPUT: 7.14
